# target.under.test: 5-HT2A receptor (Rattus norvegicus, UniProt P14842)
# Construct: Eight strips of tissue (0.5 cm long) were cut. and were mounted in 10 ml organ baths; tissue Charles River Laboratories; host or cells: rat aorta strips, endothelium removed
# Sequence (P14842 whole entry): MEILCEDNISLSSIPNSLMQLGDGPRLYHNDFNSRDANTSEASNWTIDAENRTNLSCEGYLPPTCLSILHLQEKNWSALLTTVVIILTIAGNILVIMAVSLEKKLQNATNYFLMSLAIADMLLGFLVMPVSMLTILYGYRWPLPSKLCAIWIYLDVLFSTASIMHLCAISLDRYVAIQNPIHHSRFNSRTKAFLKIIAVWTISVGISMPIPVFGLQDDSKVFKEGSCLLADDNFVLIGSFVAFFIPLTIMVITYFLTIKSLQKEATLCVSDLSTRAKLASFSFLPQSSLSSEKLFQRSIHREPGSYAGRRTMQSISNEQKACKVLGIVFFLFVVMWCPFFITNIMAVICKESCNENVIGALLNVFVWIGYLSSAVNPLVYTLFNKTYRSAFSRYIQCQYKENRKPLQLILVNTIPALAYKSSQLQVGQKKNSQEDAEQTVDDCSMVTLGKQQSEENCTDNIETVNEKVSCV
# experiment.notes: cell-based
# applied.conditions: read-out: 5HT2A (pKb) (converted)
assay.endpoint: Kb

Take a look at these entries with their results.
>  <molecule>
CCOC(=O)C[C@H]1CN(C2=Nc3cc(Cl)ccc3Oc3ccccc32)CCN1

>  <assay.endpoint>
Kb

>  <measured.result>
3.16 to 9.77 nM

$$$$
>  <molecule>
O=C(C[C@H]1CN(C2=Nc3cc(Cl)ccc3Oc3ccccc32)CCN1)NCCOCCO

>  <assay.endpoint>
Kb

>  <measured.result>
3.16 to 9.77 nM

$$$$
>  <molecule>
O=C(C[C@H]1CN(C2=Nc3cc(Cl)ccc3Oc3ccccc32)CCN1)N1CC[C@@H](O)C1

>  <assay.endpoint>
Kb

>  <measured.result>
10 to 30.9 nM

$$$$
>  <molecule>
O=C(C[C@H]1CN(C2=Nc3cc(Cl)ccc3Oc3ccccc32)CCN1)NCC(O)C(F)(F)F (some centres unmarked)

>  <assay.endpoint>
Kb

>  <measured.result>
10 to 30.9 nM

$$$$
>  <molecule>
O=C(O)C[C@@H]1CN(C2=Nc3cc(Cl)ccc3Oc3ccccc32)CCN1

>  <assay.endpoint>
Kb

>  <measured.result>
31.6 to 97.7 nM

$$$$
>  <molecule>
CN1CCN(C2=Nc3cc(Cl)ccc3Oc3ccccc32)C[C@@H]1CC(=O)OC1CCCC1

>  <assay.endpoint>
Kb

>  <measured.result>
10 to 30.9 nM

$$$$
>  <molecule>
CCOC(=O)CC1CN(C2=Nc3ccc(Cl)cc3Oc3ccccc32)CCN1 (centres unmarked)

>  <assay.endpoint>
Kb

>  <measured.result>
31.6 to 97.7 nM

$$$$
>  <molecule>
CCC(C)OC(=O)C[C@H]1CN(C2=Nc3cc(Cl)ccc3Oc3ccccc32)CCN1C (some centres unmarked)

>  <assay.endpoint>
Kb

>  <measured.result>
10 to 30.9 nM

$$$$
>  <molecule>
COC(=O)COCC1CN(C2=Nc3ccccc3Oc3ccc(Cl)cc32)CCN1C (centres unmarked)

>  <assay.endpoint>
Kb

>  <measured.result>
10 to 30.9 nM

$$$$
>  <molecule>
CC(C)(O)CCOC(=O)C[C@H]1CN(C2=Nc3cc(Cl)ccc3Oc3ccccc32)CCN1

>  <assay.endpoint>
Kb

>  <measured.result>
10 to 30.9 nM

$$$$

As a next step, examine the molecule that follows.
Data point: `CCCN(CCO)C(=O)C[C@H]1CN(C2=Nc3cc(Cl)ccc3Oc3ccccc32)CCN1` ; Kb = 31.6 to 97.7 nM

---

# target.under.test: human 5HT7 receptors (Homo sapiens, UniProt P34969)
# Construct: expressed in transfected cells; host or cells: Chinese hamster ovary cells (membranes)
# Sequence (P34969 whole entry): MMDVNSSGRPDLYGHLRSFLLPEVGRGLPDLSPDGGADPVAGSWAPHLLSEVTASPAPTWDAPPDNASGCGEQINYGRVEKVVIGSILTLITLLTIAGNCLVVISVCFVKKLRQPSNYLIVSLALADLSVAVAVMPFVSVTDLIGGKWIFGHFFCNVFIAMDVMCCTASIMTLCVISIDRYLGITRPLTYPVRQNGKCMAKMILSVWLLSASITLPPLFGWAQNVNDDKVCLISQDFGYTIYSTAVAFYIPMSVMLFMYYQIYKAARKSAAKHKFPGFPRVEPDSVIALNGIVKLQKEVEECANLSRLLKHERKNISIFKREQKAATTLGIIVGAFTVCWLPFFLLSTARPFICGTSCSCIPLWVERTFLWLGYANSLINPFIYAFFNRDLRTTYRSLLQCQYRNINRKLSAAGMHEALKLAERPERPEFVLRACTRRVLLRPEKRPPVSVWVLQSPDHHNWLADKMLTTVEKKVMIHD
# experiment.notes: h5-HT7 receptor radioligand binding ([3H]5-CT)
# applied.conditions: pKi reported on a scale of 1 through 5; read-out: 5HT7 (pKi) (converted)
Entries and their Ki

>  <molecule>
CCC(C)OC(=O)C[C@H]1CN(C2=Nc3cc(Cl)ccc3Oc3ccccc32)CCN1C (some centres unmarked)

>  <measured.result>
> 10000 nM

$$$$

Value of measured Ki for the entry `CC(C)(O)CCOC(=O)C[C@H]1CN(C2=Nc3cc(Cl)ccc3Oc3ccccc32)CCN1` : 631 to 1550 nM
